# TARGET DESC: Dual specificity mitogen-activated protein kinase kinase 7 (Homo sapiens)
# Sequence (O14733 whole entry, the tested form may be a part): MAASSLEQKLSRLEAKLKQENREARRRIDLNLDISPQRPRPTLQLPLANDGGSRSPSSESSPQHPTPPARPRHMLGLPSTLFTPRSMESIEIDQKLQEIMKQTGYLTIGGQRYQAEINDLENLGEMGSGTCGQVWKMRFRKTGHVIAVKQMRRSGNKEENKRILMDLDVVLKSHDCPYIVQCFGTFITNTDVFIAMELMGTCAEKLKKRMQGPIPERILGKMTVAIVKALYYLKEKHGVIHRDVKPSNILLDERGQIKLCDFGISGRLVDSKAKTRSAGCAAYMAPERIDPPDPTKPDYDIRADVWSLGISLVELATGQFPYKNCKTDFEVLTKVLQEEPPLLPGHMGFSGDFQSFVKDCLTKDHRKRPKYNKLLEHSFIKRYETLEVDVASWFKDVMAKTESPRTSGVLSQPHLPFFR
# ASSAY PROCEDURE: Inhibition of N-terminal 6XHis-tagged recombinant MKK7 (117 to 423 residues) in human U2OS assessed as reduction in c-Jun phosphorylation level incubated for 80 mins by Western blot analysis

{"columns": ["SMILES STRING", "EC50"],
 "data": [
  ["C=CC(=O)N1CCC[C@@H](n2nc(-c3cn(-c4cc(Br)ccc4O)nn3)c3c(N)ncnc32)C1", "> 900 nM"],
  ["C=CC(=O)Nc1cc(C(=O)NCc2cn(-c3ccccc3C)nn2)cc(-c2n[nH]c3ccccc23)c1", "< 3000 nM"]
]}

Data origin, for the record: ChEMBL document CHEMBL5120949
